Recorded IFN gamma levels pg/mL (MLR) for the following binders
test.system: PD-1 (PDCD1) (Homo sapiens (Human)) (UniProt Q15116)
Sequence (Q15116 21-288): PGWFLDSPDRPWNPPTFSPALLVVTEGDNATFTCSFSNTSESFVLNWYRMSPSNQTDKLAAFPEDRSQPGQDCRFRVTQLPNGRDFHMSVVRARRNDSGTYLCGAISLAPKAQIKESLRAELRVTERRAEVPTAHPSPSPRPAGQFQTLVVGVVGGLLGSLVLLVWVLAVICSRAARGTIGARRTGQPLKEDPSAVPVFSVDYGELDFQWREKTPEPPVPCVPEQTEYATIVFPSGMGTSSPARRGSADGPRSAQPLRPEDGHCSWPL
protocol.details: cell-based or functional assay
Please give the number followed by its unit.

As a guide, the following entries are already answered.
binder	obs.value
PD-L2 I13V/H15Q/T37A/E44D/S48C/S67L/Q82R/V89D IgV-Fc (Fc fusion, not shown: a dimerising Fc or GST) LFTVTVPKELYIVEQGSNVTLECNFDTGSHVNLGAIAASLQKVDNDTCPHRERATLLEEQLPLGKALFHIPQVQVRDEGQYRCIIIYGDAWDYKYLTLKVKA	1750 pg/mL
PD-L2 I13V/H15Q/V31A/N45S/Q82R/V89D IgV-Fc (Fc fusion, not shown: a dimerising Fc or GST) LFTVTVPKELYIVEQGSNVTLECNFDTGSHANLGAITASLQKVESDTSPHRERATLLEEQLPLGKASFHIPQVQVRDEGQYRCIIIYGDAWDYKYLTLKVKA	1720 pg/mL
PD-L2 I13V/H15Q/T47A/H69L/R76G/V89D IgV-Fc (Fc fusion, not shown: a dimerising Fc or GST) LFTVTVPKELYIVEQGSNVTLECNFDTGSHVNLGAITASLQKVENDASPHRERATLLEEQLPLGKASFLIPQVQVGDEGQYQCIIIYGDAWDYKYLTLKVKA	1080 pg/mL

Would you mind telling me what IFN gamma levels pg/mL (MLR) value was observed for PD-L2 N32D/S67L/V89D IgV-Fc (Fc fusion, not shown: a dimerising Fc or GST) LFTVTVPKELYIIEHGSNVTLECNFDTGSHVDLGAITASLQKVENDTSPHRERATLLEEQLPLGKALFHIPQVQVRDEGQYQCIIIYGDAWDYKYLTLKVKA ? 1190 pg/mL

The reported numbers originate from patent US20210130436A1.
